Experiment: Next Generation Impactor (NGI) testing of pMDI prototype formulations
Format: physicochemical
Conditions: Formulation 1; Throat stage to MOC
Assign Actual Emitted dose to each entry below.
Quick reminder: number only, in µg, skip the unit.

For the compound shown here, C[N+]1(C)CCC(OC(=O)C(O)(c2ccccc2)C2CCCC2)C1 (stereo not shown) [Glycopyrronium, glycopyrronium, reference compound] , give the reported Actual Emitted dose.
28.0

Also CCCCCc1cc(O)c(C/C=C(\C)CCC=C(C)C)c(O)c1 [CBG, cannabigerol] ?
345.7

Also CCCCCc1cc(O)c2c(c1)OC(C)(CCC=C(C)C)C=C2 (stereo not shown) [CBC, cannabichromene] ?
266.1

Also C=C(C)[C@@H]1CCC(C)=C[C@H]1c1c(O)cc(CCCCC)cc1O [CBD, cannabidiol, reference compound] ?
312.1
